Target: VEGFR2 (KDR) extracellular domain/Fc (Homo sapiens, UniProt P35968 P35968:20-764)
Sequence (P35968 20-764, one chain of several): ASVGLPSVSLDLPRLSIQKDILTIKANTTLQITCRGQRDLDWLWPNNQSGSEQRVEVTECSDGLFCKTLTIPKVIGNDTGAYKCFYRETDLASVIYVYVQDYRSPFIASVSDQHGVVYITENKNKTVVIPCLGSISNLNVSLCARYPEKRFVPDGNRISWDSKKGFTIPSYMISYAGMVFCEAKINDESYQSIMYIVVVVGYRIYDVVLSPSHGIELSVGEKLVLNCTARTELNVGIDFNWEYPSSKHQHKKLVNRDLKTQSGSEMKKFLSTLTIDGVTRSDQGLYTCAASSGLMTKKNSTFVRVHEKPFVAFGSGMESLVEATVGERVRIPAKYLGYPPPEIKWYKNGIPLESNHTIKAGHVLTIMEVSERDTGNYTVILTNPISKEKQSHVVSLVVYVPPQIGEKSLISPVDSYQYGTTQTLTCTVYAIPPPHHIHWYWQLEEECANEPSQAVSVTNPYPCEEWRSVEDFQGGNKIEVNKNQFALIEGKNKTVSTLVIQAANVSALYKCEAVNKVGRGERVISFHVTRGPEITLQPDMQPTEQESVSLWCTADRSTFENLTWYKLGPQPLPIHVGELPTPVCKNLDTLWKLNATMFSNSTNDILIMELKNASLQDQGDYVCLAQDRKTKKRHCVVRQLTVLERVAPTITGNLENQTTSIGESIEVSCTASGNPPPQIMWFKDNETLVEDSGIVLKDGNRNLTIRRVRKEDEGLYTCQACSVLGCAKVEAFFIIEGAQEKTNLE
Assay: filter; circularly permuted family member
Details: tags: C-terminal human IgG1 Fc fusion with Factor Xa site and His6; R&D Systems; NSO mouse myeloma cells; chain copies: 2 (stated, disulfide-linked homodimer)
parameter: Kd (pM)
Answer with a number only, understood to be in pM.

Value of Kd reported for the binder K21 (ssRNA, 2'-F pyrimidines) RNA: GGGAGGACGAUGCGGAUCAUACCGAAGAGACACGGGGCCACCAUAUCCUCACCCCCAGACGACUCGCCCGA is 260
